Target: human CLDN6 fused to GFP, expressed on engineered HEK293T cells (human) (UniProt P56747)
Assay: FACS dose curve, labelled mAb, HEK293T-CLDN6-mGFP cells
For each entry below, report its pEC50 value.
Here pEC50 is given on a logarithmic scale as minus log10 of the concentration in mol/L.

Exercise: pEC50 lookup needed for AB12 (antibody, V domains shown) VH: EVKLMESGGDLVKPGGSLKLSCAASGFTFSSYAMSWVRQTPEKRLEWVASIRSGGTTYYPDSVKGRFTISRDNARNILYLRMSSLRSEDTAIYYCAKVGGNPYPMDYWGQGTSVTVSS VL: DIQMIQSPSSMFASLGDRVSLSCRASQDIGGNLDWYQQKPGGTIKLLIYSTSNLNSGVPSRFSGSGSGSDYSLTITSLESEDFADYYCLQRNAYPLTFGAGTKLELK , thanks.
Solution: 5.30

Exercise: Next record, please: AB13 (antibody, V domains shown) VH: QVQLQQSGAELVRPGTSVKVSCKASGYAFSNYLIEWVKQRPGQGLEWIGVINPGSGGTNYNEKFKGKATMTADKSSSTAYMHLSNLTSEDSVVYFCARSYFGRSYPYTMDYWGQGTSVTVSS VL: EIVLTQSPTTMAASPGEKITITCSASSSISSNYLHWYQQKPGFSPKLLIYRTSNLASGVPARFSGSGSGTSYSLTIGTMEAEDVATYYCQQGSSIPLTFGAGTKLELK
Solution: 5.30

Exercise: What do you have for AB10 (antibody, V domains shown) VH: QIQLVQSGPALKKPGETVKISCKASGYTFTDYSMHWIKQAPGKGLKWMGWISTETGEPTYADGFKGRFDFSLETSADTAYLSINNLTNEDTATYFCTRGLWSSFAYWGQGTLVTVSA VL: DVVMTQTPLSLPVSLGDQASISCRASQSLVHSNGNTYLHWFLQKPGQSPKLLIYKVSNRFSGVPDRFSGSGSRTDFTLKISRVEAEDLGVYFCSQITHVPYTFGGGTKLEIK ?
Solution: 5.56

Exercise: And for AB2 (antibody, V domains shown) VH: EVKLEESGGGLVQPGGSMKLSCVASGFTFSDYWMNWVRQSPEKGLEWVAQIRLKSDNYATHYAESVKGRFTISRDDSKRSVYLQMNNLRAEDTGTYYCNDGPPSGCWGQGTTLIVSS VL: DIQMTQSPASLSASVGETVTITCRISENIYSYLAWYQQKQGKSPQLLVYNAKILVEGVPSRFSGSGSGTQFSLKINSLQPEDFGNYYCQHHYTVPWTFGGGTKLEIK ?
Solution: 6.74

Exercise: Param item: AB14 (antibody, V domains shown) VH: QVQLQQSGPELVRPGVSVKISCKGSGYTFTDYAMHWVKQSHAKSLEWIGVISTYSGNTNYNQKFQDKATMTVDKSSSTAYMALARLTSDDSAIYYCARRGDYSLYAMDYWGQGTSVTVSS VL: DIVLTQSPASLAVSLGQRATISCKASQSVDYDGDNYVNWYQQKVGQPPKLLISAASNLESGIPARFSGSGSGTDFTLNIHPVEEEDAATYYCQQSNEDPFTFGSGTKLEIK
Solution: 5.30
